test: Lipophilicity (logkw) by reversed-phase chromatography (RP-HPLC); format: physicochemical; conditions: extrapolated to pure water
So basically, if logkw (Experimental) comes in under 5 it's true (1), and if it's 5 or more it's false (0).

Examples from the recorded data:
{"columns": ["compound", "classification"],
 "data": [
  ["CC(C)(C)NCC(O)CN1C(=O)C2C(C1=O)C1(c3ccccc3)CC2(c2ccccc2)C(c2ccccc2)=C1c1ccccc1 (stereo not drawn)", "false (0)"],
  ["O=C1C2C(C(=O)N1CC(O)CN1CCOCC1)C1(c3ccccc3)CC2(c2ccccc2)C(c2ccccc2)=C1c1ccccc1 (stereo not drawn)", "false (0)"],
  ["CCC12C(=O)C(CC)(C(c3ccccc3)=C1c1ccccc1)C1C(=O)N(CC(O)CNC(C)(C)C)C(=O)C12 (stereo not drawn)", "true (1)"]
]}

Please let me know if CCNCC(O)CN1C(=O)C2C(C1=O)C1(c3ccccc3)CC2(c2ccccc2)C(c2ccccc2)=C1c1ccccc1 (stereo not drawn) shows logkw (Experimental) below 5. false (0)

Next: CC12C(=O)C(C)(C(c3ccccc3)=C1c1ccccc1)C1C(=O)N(CC(O)CN3CCOCC3)C(=O)C12 (stereo not drawn) true (1)

For CCN(CC)CC(O)CN1C(=O)C2C(C1=O)C1(c3ccccc3)CC2(c2ccccc2)C(c2ccccc2)=C1c1ccccc1 (stereo not drawn) then? false (0)

Can you handle CCNCC(O)CN1C(=O)C2C(C1=O)C1(C)C(=O)C2(C)C(c2ccccc2)=C1c1ccccc1 (stereo not drawn) next? true (1)

====

test system: HeLa (human cervix carcinoma) cells; assay: MTT cytotoxicity assay, HeLa; type: cell-based; conditions: 48 h incubation, average (SD) of three experiments, read-out: IC50 HeLa
pIC50: −log10 of the molar value.
Would you please tag the item YES when its pIC50 is 5 or above, and NO when it is below?

Please review the entries below; each comes with its answer.
{"columns": ["compound", "classification"],
 "data": [
  ["CC12C(=O)C(C)(C(c3ccccc3)=C1c1ccccc1)C1C(=O)N(CCN3CCCCC3)C(=O)C12 (stereo not shown)", "NO"],
  ["CCN(CC)CC(O)CN1C(=O)C2C(C1=O)C1(C)C(=O)C2(C)C(c2ccccc2)=C1c1ccccc1 (stereo not shown)", "NO"],
  ["CCN(CC)CC(O)CN1C(=O)C2C(C1=O)C1(CC)C(=O)C2(CC)C(c2ccccc2)=C1c1ccccc1 (stereo not shown)", "NO"],
  ["CCC12C(=O)C(CC)(C(c3ccccc3)=C1c1ccccc1)C1C(=O)N(CC(O)CNC(C)(C)C)C(=O)C12 (stereo not shown)", "YES"],
  ["CCN(CC)CC(O)CN1C(=O)C2C(C1=O)C1(c3ccccc3)CC2(c2ccccc2)C(c2ccccc2)=C1c1ccccc1 (stereo not shown)", "YES"],
  ["O=C1C2C(C(=O)N1CC(O)CN1CCCCC1)C1(c3ccccc3)CC2(c2ccccc2)C(c2ccccc2)=C1c1ccccc1 (stereo not shown)", "YES"]
]}

pIC50 >= 5 for CC12C(=O)C(C)(C(c3ccccc3)=C1c1ccccc1)C1C(=O)N(CC(O)CN3CCOCC3)C(=O)C12 (stereo not shown) ? NO

====

assay: Lipophilicity (logkw) by reversed-phase chromatography (RP-HPLC); assay type: physicochemical; conditions: intercept of logk vs methanol fraction, n = 4
Parameter logkw (Table S2): see the listing below.
Simply state the number, no unit and no words.

The examples below pair each entry with its known result.
{"columns": ["compound", "logkw (Table S2)"],
 "data": [
  ["CCC12C(=O)C(CC)(C(c3ccccc3)=C1c1ccccc1)C1C(=O)N(CCN(C)C)C(=O)C12 (stereo not drawn)", 4.9430],
  ["CCN(CC)CC(O)CN1C(=O)C2C(C1=O)C1(C)C(=O)C2(C)C(c2ccccc2)=C1c1ccccc1 (stereo not drawn)", 4.8734],
  ["CCN(CC)CC(O)CN1C(=O)C2C(C1=O)C1(CC)C(=O)C2(CC)C(c2ccccc2)=C1c1ccccc1 (stereo not drawn)", 5.1042],
  ["CCNCC(O)CN1C(=O)C2C(C1=O)C1(c3ccccc3)CC2(c2ccccc2)C(c2ccccc2)=C1c1ccccc1 (stereo not drawn)", 6.3071],
  ["CCN(CC)CCN1C(=O)C2C(C1=O)C1(CC)C(=O)C2(CC)C(c2ccccc2)=C1c1ccccc1 (stereo not drawn)", 5.0889],
  ["CCC12C(=O)C(CC)(C(c3ccccc3)=C1c1ccccc1)C1C(=O)N(CCCN(C)C)C(=O)C12 (stereo not drawn)", 5.0532],
  ["O=C1C2C(C(=O)N1CC(O)CN1CCOCC1)C1(c3ccccc3)CC2(c2ccccc2)C(c2ccccc2)=C1c1ccccc1 (stereo not drawn)", 6.2759],
  ["CCC12C(=O)C(CC)(C(c3ccccc3)=C1c1ccccc1)C1C(=O)N(CC(O)CN3CCOCC3)C(=O)C12 (stereo not drawn)", 4.9763]
]}

Please look at the following compound next.
Which logkw (Table S2) is listed for CCNCC(O)CN1C(=O)C2C(C1=O)C1(CC)C(=O)C2(CC)C(c2ccccc2)=C1c1ccccc1 (stereo not drawn) ? 5.0846
